# test_protocol: Cmax in Sprague-Dawley rat at 25 mg/kg, po measured upto 24 hrs by LC-MS/MS analysis
# Assay type: ADME, organism-based
# conditions_used: in vivo
measured_quantity: Cmax (ng/mL)
Expressed in ng/mL, but write only the number.

Query :: Find the measured Cmax of O=C(NCCN1CCOCC1)c1ccc(-c2cnc3[nH]ccc3c2)cc1 and report it.
Result :: 1210

###

# test_protocol: Half life in Sprague-Dawley rat at 25 mg/kg, po measured upto 24 hrs by LC-MS/MS analysis
# Assay type: ADME, organism-based
# conditions_used: in vivo
measured_quantity: half-life (h)
Give the value, in units of h, as a plain number.

Query :: Note half-life for the compound shown: O=C(NCCN1CCOCC1)c1ccc(-c2cnc3[nH]ccc3c2)cc1
Result :: 2.73

Source: ChEMBL document CHEMBL5505976
